Cited source: PubChem BioAssay (NCI)

Assay: NCI Yeast Anticancer Drug Screen. Data for the mgt1 strain (AID 153)
Settings: S. cerevisiae mgt1 mutant growth inhibition; at 33.0 µM; hits give high values
This is part of a sample that, as a whole, favours compounds with a hit. Of some 79,000 tested, about 15% had one in any assay. Activity calls are given as the source filed them. No stated cut-off is given here; in the data, active means growth inhibition above about 70%; inactive means the rest.
Items are presented alongside their recorded growth inhibition.
Observation Type: growth inhibition

{"columns": ["Compound", "Observed Value"],
 "data": [
  ["c1ccc(N=c2nc(N3CCOCC3)ss2)cc1", "99% (active)"],
  ["Oc1ccc(Cl)cc1Cc1ccccc1", "98% (active)"],
  ["O=C(O)C1C2c3ccccc3C(c3ccccc32)C1C(=O)O (configuration not stated)", "-2% (inactive)"],
  ["O=S(=O)(O)c1ccc(Cl)cc1.[Cd]", "55% (inactive)"],
  ["N#Cc1cc(N(CCCl)CCCl)c([N+](=O)[O-])cc1[N+](=O)[O-]", "28% (inactive)"],
  ["CC[C@@]1(O)C[C@H](OC2CC(N(C)C)C(O)C(C)O2)c2c(O)c3c(c(O)c2[C@H]1OC1CC(N(C)C)C(O)C(C)O1)C(=O)c1cccc(O)c1C3=O (some centres not stated)", "18% (inactive)"],
  ["Nc1nc(-c2ccccc2)c(-c2ccccc2)[se]1", "2% (inactive)"],
  ["C[C@]12CCC(=O)C=C1CC[C@@H]1C2CC[C@@]2(C)C1CC[C@@H]2OC(=O)C12OC1CCC2=O (some centres not stated)", "92% (active)"],
  ["COC1CC(CC2CCC(C)C(C(C)C(=O)O)O2)OC2(OC(C)(C3CCC(C)(C4OC(C5OC(O)(CO)C(C)CC5C)CC4C)O3)CC2C)C1C (configuration not stated)", "91% (active)"],
  ["COc1cc(O)c2c(O)c3c(c4c2c1[C@]1(C4)C(C)=CCCC1(C)C)[C@H](O)[C@@]1(O)CC(=O)C(C(N)=O)=C(O)[C@@]1(O)C3=O", "98% (active)"],
  ["O=C(NNC(=O)OCC(Cl)(Cl)Cl)OCC(Cl)(Cl)Cl", "91% (active)"],
  ["O=C1c2ccccc2C(=O)C(Cl)C1Cl (configuration not stated)", "99% (active)"],
  ["O=[N+]([O-])c1ccc(-n2nc3ccc4c(no[n+]4[O-])c3[n+]2[O-])c([N+](=O)[O-])c1", "-3% (inactive)"],
  ["O=P(Oc1ccc(Cl)cc1)(Oc1ccc(Cl)cc1)N1CC1", "-4% (inactive)"],
  ["Br[Se]c1ccccn1", "99% (active)"],
  ["O=[N+]([O-])c1ccc(N2CCC(CCCC3CCN(c4ccc([N+](=O)[O-])cc4[N+](=O)[O-])CC3)CC2)c([N+](=O)[O-])c1", "10% (inactive)"],
  ["CNC(=O)ON(C(C)=O)C(=O)NC", "8% (inactive)"]
]}
